- assayed target: T1, human IL-33 (R&D Systems, #3625-IL-010/CF) (human, UniProt O95760 112-270)
- T1 construct: Commercial recombinant protein; also called hIL-33; interleukin-33
- T1 sequence (looked up): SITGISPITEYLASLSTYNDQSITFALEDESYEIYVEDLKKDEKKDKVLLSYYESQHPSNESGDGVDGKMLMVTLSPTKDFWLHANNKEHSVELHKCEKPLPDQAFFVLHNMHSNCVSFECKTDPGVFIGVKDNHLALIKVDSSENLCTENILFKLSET
- method: SPR 25C pH7.4, mAb captured
- Method: Equilibrium dissociation constants (KD values) for IL-33 binding to purified anti-IL-33 monoclonal antibodies were determined using a real-time surface plasmon resonance biosensor using a Biacore 4000 instrument. […] Association of either hIL-33 or MfIL-33-6His to the captured monoclonal antibody was monitored for 4 minutes and their dissociation in ABS-ET running buffer was monitored for 10 minutes. […]
# t½ values compiled below
measurement name: t½ (min)

{"columns": ["binder", "measurement name", "recorded value"],
 "data": [
  ["H4H9663P (antibody, human IgG4, V domains shown, Human IgG4 Fc (H4H)) VH: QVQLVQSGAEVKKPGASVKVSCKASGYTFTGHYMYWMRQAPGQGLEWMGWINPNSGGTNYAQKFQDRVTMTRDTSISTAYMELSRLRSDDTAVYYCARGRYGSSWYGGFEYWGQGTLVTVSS VL: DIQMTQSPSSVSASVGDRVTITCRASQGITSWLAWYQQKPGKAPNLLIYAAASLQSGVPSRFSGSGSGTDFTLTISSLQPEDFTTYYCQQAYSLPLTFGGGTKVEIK", "t½", 28],
  ["H1M9568N (antibody, mouse IgG1, V domains shown, Human variable domains, mouse IgG1 Fc (H1M)) VH: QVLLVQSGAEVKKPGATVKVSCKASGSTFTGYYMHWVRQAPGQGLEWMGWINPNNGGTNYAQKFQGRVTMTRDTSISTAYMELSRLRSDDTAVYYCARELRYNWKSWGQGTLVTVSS VL: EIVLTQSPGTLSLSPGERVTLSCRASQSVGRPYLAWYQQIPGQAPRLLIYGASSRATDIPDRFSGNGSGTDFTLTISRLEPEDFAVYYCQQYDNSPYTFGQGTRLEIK", "t½", 89],
  ["H4H9665P (antibody, human IgG4, V domains shown, Human IgG4 Fc (H4H)) VH: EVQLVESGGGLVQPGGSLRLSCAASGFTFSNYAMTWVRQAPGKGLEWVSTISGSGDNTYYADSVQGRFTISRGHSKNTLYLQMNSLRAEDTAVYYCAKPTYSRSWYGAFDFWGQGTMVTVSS VL: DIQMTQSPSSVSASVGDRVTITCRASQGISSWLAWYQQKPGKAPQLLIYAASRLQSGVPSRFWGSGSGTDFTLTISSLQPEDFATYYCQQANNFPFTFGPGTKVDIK", "t½", 24],
  ["H4H9676P (antibody, human IgG4, V domains shown, Human IgG4 Fc (H4H)) VH: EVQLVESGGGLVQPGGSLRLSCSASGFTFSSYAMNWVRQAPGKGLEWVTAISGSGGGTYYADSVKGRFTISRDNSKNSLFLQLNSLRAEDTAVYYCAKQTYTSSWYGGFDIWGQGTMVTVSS VL: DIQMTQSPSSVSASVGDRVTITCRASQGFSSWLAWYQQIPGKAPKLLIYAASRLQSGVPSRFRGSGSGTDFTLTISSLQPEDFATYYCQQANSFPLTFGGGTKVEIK", "t½", 33],
  ["H4H9662P (antibody, V domains shown, Human IgG4 Fc (H4H)) VH: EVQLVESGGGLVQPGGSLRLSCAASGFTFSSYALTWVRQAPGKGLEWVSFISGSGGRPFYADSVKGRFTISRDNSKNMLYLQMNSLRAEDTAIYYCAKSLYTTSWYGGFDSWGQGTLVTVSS VL: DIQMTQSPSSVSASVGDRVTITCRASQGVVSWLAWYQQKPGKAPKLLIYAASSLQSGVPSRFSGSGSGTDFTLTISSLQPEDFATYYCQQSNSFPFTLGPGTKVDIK", "t½", 46],
  ["H4H9672P (antibody, human IgG4, V domains shown, Human IgG4 Fc (H4H)) VH: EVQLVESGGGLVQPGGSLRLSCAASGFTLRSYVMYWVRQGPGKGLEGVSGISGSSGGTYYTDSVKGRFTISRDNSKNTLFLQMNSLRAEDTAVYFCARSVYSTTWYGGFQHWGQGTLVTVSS VL: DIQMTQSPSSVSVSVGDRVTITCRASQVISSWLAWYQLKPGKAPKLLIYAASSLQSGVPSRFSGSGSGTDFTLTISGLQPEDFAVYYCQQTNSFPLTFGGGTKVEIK", "t½", 33],
  ["H4H9660P (antibody, human IgG4, V domains shown, Human IgG4 Fc (H4H)) VH: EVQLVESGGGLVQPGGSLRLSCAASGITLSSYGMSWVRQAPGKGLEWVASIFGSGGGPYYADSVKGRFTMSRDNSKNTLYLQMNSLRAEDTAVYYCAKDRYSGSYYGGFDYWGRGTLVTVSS VL: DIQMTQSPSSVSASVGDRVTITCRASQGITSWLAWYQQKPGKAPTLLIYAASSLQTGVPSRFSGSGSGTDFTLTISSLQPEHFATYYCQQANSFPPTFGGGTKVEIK", "t½", 52],
  ["H1M9559N (antibody, mouse IgG1, V domains shown, Human variable domains, mouse IgG1 Fc (H1M)) VH: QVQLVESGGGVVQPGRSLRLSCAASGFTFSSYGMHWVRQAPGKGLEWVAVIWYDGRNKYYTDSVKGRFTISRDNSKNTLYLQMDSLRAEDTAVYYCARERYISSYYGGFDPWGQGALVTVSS VL: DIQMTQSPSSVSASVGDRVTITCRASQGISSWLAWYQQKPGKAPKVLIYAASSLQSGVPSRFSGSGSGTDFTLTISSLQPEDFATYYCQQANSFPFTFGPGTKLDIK", "t½", 42],
  ["H4H9675P (antibody, human IgG4, V domains shown, Human IgG4 Fc (H4H)) VH: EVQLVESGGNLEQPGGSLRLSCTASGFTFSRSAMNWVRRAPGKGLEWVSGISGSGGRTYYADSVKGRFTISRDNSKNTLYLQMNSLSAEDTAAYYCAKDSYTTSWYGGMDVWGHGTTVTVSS VL: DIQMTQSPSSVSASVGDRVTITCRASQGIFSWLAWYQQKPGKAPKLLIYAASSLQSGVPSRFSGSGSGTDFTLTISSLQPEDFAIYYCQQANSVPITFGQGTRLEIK", "t½", 45],
  ["H4H9629P (antibody, human IgG4, V domains shown, Human IgG4 Fc (H4H)) VH: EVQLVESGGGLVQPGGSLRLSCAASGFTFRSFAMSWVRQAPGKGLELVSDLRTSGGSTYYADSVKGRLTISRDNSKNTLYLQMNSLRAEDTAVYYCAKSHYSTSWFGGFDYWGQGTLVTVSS VL: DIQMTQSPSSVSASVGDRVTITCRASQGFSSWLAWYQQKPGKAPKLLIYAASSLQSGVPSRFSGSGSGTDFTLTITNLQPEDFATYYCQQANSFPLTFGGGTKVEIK", "t½", 51]
]}
